# Test system: Klebsiella aerogenes DSM 30053
# protocol text: fold change of Putrescine concentration vs plate DMSO controls (fold change (ratio)); higher = more amine produced, active = hit call of the paper (significant change in both replicates, either direction)
# reported conditions: incubation time: 27 h, anaerobic, 37 °C
Structures can show the parent of a compound that is named as a salt.
# if value of fold change of Putrescine concentration reaches 1, tag met; if it stays below, tag not met

> print(dat)
                                   compound  class.label
1  Nc1nc(O)c2ncn(CCC(CO)CO)c2n1 [Penciclovir] (20 µM)      not met

Now, please, on to the next compound.
Enquiry: Does the reported fold change of Putrescine concentration for CCCN1CCCC[C@H]1C(=O)Nc1c(C)cccc1C [Ropivacaine hydrochloride] (20 µM) fall at or above the 1 mark?
Return: met

###

# Test system: Klebsiella aerogenes DSM 30053
# protocol text: fold change of Histamine concentration vs plate DMSO controls (fold change (ratio)); higher = more amine produced, active = hit call of the paper (significant change in both replicates, either direction)
# reported conditions: incubation time: 27 h, anaerobic, 37 °C
Structures can show the parent of a compound that is named as a salt.
# if value of fold change of Histamine concentration reaches 1, tag Yes; if it stays below, tag No

Some solved entries appear below for comparison.
> print(dat)
                                   molecule  class.label
1  CCOC(=O)[C@H](CCc1ccccc1)N[C@@H](C)C(=O)N1C(=O)N(C)C[C@H]1C(=O)O [Imidapril hydrochloride] (20 µM)           No
2  CCN(CC)CCOC(=O)C1(c2ccc([N+](=O)[O-])cc2)CCCC1 [Nitrocaramiphen hydrochloride] (20 µM)          Yes
3  OC[C@H]1O[C@H](O[C@H]2[C@H](O)[C@@H](O)[C@H](O)O[C@@H]2CO)[C@H](O)[C@@H](O)[C@@H]1O [Maltose] (50 µM)           No
4  CC/C(=C(/CC)c1ccc(O)cc1)c1ccc(O)cc1 [Diethylstilbestrol] (20 µM)          Yes

Enquiry: Does the reported fold change of Histamine concentration for CC(C)NCC(O)c1ccc(O)c(O)c1 (single isomer, unassigned; (+)) [(+) Isoproterenol-(+)-bitartrate salt] (20 µM) fall at or above the 1 mark?
Return: Yes

Enquiry: Does the reported fold change of Histamine concentration for C[C@@H]1CCO[C@H]2Cn3cc(C(=O)NCc4ccc(F)cc4F)c(=O)c(O)c3C(=O)N12 [Dolutegravir] (20 µM) fall at or above the 1 mark?
Return: Yes

Enquiry: Does the reported fold change of Histamine concentration for COCCc1ccc(OCC(O)CNC(C)C)cc1 (stereo not drawn) [Metoprolol-(+)-tartrate salt] (20 µM) fall at or above the 1 mark?
Return: No

Enquiry: Does the reported fold change of Histamine concentration for CC(C)(C)C(O)/C=C/c1ccc2c(c1)OCO2 (stereo unspecified) [Stiripentol] (20 µM) fall at or above the 1 mark?
Return: Yes

Enquiry: Does the reported fold change of Histamine concentration for CN1C(=O)CC(c2ccccc2)C1=O (stereo unspecified) [Phensuximide] (20 µM) fall at or above the 1 mark?
Return: Yes

Enquiry: Does the reported fold change of Histamine concentration for COC(c1ccccc1)(c1ccccc1)[C@H](Oc1nc(C)cc(C)n1)C(=O)O [Ambrisentan] (20 µM) fall at or above the 1 mark?
Return: Yes

Enquiry: Does the reported fold change of Histamine concentration for C[C@H](N[C@@H](CCc1ccccc1)C(=O)O)C(=O)N1CCC[C@H]1C(=O)O [Enalaprilat dihydrate] (20 µM) fall at or above the 1 mark?
Return: Yes

Enquiry: Does the reported fold change of Histamine concentration for CC(C)NC(=N)NC(=N)Nc1ccc(Cl)cc1 [Proguanil hydrochloride] (20 µM) fall at or above the 1 mark?
Return: Yes

Enquiry: Does the reported fold change of Histamine concentration for Cc1ncc(CO)c(CO)c1O [Pyridoxine hydrochloride] (20 µM) fall at or above the 1 mark?
Return: No

Enquiry: Does the reported fold change of Histamine concentration for CC1(C)S[C@@H]2[C@H](NC(=O)[C@H](C(=O)O)c3ccsc3)C(=O)N2[C@H]1C(=O)O [Ticarcillin sodium] (20 µM) fall at or above the 1 mark?
Return: Yes

Enquiry: Does the reported fold change of Histamine concentration for CC(C)n1c(/C=C/C(O)CC(O)CC(=O)O)c(-c2ccc(F)cc2)c2ccccc21 (stereo unspecified) [Fluvastatin sodium salt] (20 µM) fall at or above the 1 mark?
Return: No

Enquiry: Does the reported fold change of Histamine concentration for CCOc1ccc2ccccc2c1C(=O)N[C@@H]1C(=O)N2[C@@H]1SC(C)(C)[C@@H]2C(=O)O [Nafcillin sodium salt monohydrate] (20 µM) fall at or above the 1 mark?
Return: No
